Where do the numbers come from? From PubChem BioAssay.

Would you mind telling me the reported inhibition of aggregation of each entry?
- ASSAY: reduction of polyQ htt aggregates in cells – imaging, exon1htt(103Q)mCFP cells, high-content imaging, primary screen (AID 483);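 note: compound exposure lasted 3 days before fixation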
- CONDITION: exon1htt(103Q)mCFP cell line, aggregate imaging, at 2 µM; stronger effect = higher value
Activity calls are given as the source filed them.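 Rule for the calls: active = visual image review flags a hit and inhibition of aggregation exceeds 20%; inconclusive = visual hit but inhibition at or below 20%; inactive = no hit on visual image review.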

O=C(Nc1ccc2oc(=O)ccc2c1)c1cccnc1 : 4% (inactive)
Cc1cccc(Cn2c(=O)n(Cc3ccco3)c(=O)c3ccccc32)c1 : -10.9% (inactive)
COC(=O)NCC(c1cccnc1)N1CCOCC1 (configuration not stated) : 16.6% (inactive)
Cc1nn(Cc2ccccc2Cl)c(C)c1NC(=O)C1C2CCC(O2)C1C(=O)O (configuration not stated) : 0.3% (inactive)
COC(=O)c1nc(N)sc1-c1ccccc1 : 9.3% (inactive)

Count: 6. Required value per item: inhibition of aggregation.
1. Clc1ccc(OCc2nnc(SCCN3CCCCC3)n2Cc2ccco2)cc1
2. CC1=C(C(=O)N2CCOCC2)C(c2ccccc2F)C2=C(CCCC2=O)N1 (configuration not stated)
3. COc1cc(C2C(C#N)=C(C)NC3=C2C(=O)CC(C)(C)C3)ccc1O (configuration not stated)
4. O=C(CCSc1ccccc1)N1CCOCC1
5. COc1ccc(Nc2nc(OC)nc(N3CCN(c4ccc(OC)cc4)CC3)n2)cc1
6. Cc1cc(NC(=O)CSc2nc(C3CCCCC3)nc3ccccc23)no1

6% (inactive)
-15% (inactive)
1% (inactive)
-7.3% (inactive)
-13.1% (inactive)
-20.3% (inactive)

What does the data say about its inhibition of aggregation? Entry: COc1cc(S(=O)(=O)NC2CCCCC2)ccc1Cl
4.9% (inactive)

###

Would you mind telling me the reported inhibition of each entry?
- ASSAY: endothelial E-selectin expression blockers – imaging, HUVEC, immunofluorescence, MLSMR starter and 10KST1 sets, primary screen (AID 487);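 note: signal is fraction of cell area covered by stained E-selectin grains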
- CONDITION: HUVEC TNFalpha-induced E-selectin immunofluorescence imaging, at 2 µM; stronger effect = higher value
Answers are plain numbers, in %.

Count: 5. Required value per item: inhibition.
1. CCOc1ccc(-c2nc(S(=O)(=O)c3ccccc3)c(NCc3cccnc3)o2)cc1
2. CCOC(=O)N1CCN(Cc2nc3c(c(=O)n(C)c(=O)n3C)n2Cc2ccc(F)cc2)CC1
3. FC(F)Sc1nnc(-c2cccs2)n1-c1ccccc1
4. O=C(NCCCN1CCN(CCCNC(=O)c2ccc(F)cc2)CC1)c1ccc(F)cc1
5. COC(=O)C1=C(N)Oc2cc(C)n(Cc3ccncc3)c(=O)c2C1c1cccnc1 (stereo not given)

-59
-23.4
-146
4.2
10.9

###

- ASSAY: TLR3 IRF3 reporter activation blockers – cell-based, poly I:C stimulus, luciferase, 10K MLSCN set, primary screen (AID 602277)
- CONDITION: HEK293-TLR3 RL24 IRF3 luciferase reporter, at 10 µM, stronger effect = higher value
Would you mind telling me the reported inhibition of each entry?
Answers are plain numbers, in %.

# count of solved cases: 5
O=C(Cn1cnc2c(cnn2-c2ccc(F)cc2)c1=O)N1CCN(c2ccccc2)CC1 : 8.47
COc1ccc(CC(=O)Nc2ccc(-c3nnc(-c4ccc(C)cc4)o3)cc2)cc1 : 18.4
C1=Nc2c(NCc3ccccc3)ncnc2Oc2ccccc21 : 1.46
CCOC(=O)N1CCN(Cc2cc(=O)oc3ccc4ccccc4c23)CC1 : 21.7
COc1ccccc1S(=O)(=O)Cc1ccc(C(=O)N2CCOCC2)o1 : 33.5

What does the data say about its inhibition? Entry: Cc1ccccc1CN1CCN(C(=O)c2cccc(F)c2)CC1
12
